System: IGROV1 complex spheroids (HUVEC, MSC), viability % test/control
EXPERIMENT_SUMMARY: Anticancer human tumor IGROV1 cell line growth inhibition [GQUAD];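 also: spheroids exposed to compounds for 7 days before readout; 100% = DMSO vehicle control viability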
DETAILS: second compound 10 µM; first compound 1 µM; stronger effect = lower value
Labelling field: enter 1 (yes) if recorded viability, T/C is less than 5%. Enter 0 (no) if it equals or exceeds that cut-off.

MOLECULE | LABEL_CLASS
C=CCn1c(=O)c2cnc(Nc3ccc(N4CCN(C)CC4)cc3)nc2n1-c1cccc(C(C)(C)O)n1 + CN(C)c1ccc(Nc2c3ccc(NC(=O)CCN4CCCC4)cc3nc3cc(NC(=O)CCN4CCCC4)ccc23)cc1 | 1 (yes)
O=c1[nH]cc(F)c(=O)[nH]1 + Cc1cnc(CNC(=O)c2c(=O)c3ccc(N4CCCN(C)CC4)nc3n3c2sc2ccccc23)cn1 | 0 (no)
CC1COCCN1c1cc(-c2ccnn2C)c2ccnc(-c3ccn[nH]3)c2n1 (stereo unspecified) + Cc1[nH]c2ccc(F)cc2c1-c1nc2c3cccnc3c3ncccc3c2[nH]1 | 1 (yes)
CC1COCCN1c1cc(C2(O)CC3CCC(C2)O3)c2cnn(-c3ccn[nH]3)c2n1 (stereo unspecified) + Cc1cnc(CNC(=O)c2c(=O)c3ccc(N4CCCN(C)CC4)nc3n3c2sc2ccccc23)cn1 | 1 (yes)
COc1cc(C2c3cc4c(cc3C(OC3OC5COC(C)OC5C(O)C3O)C3COC(=O)C23)OCO4)cc(OC)c1O (stereo unspecified) + Cc1[nH]c2ccc(F)cc2c1-c1nc2c3cccnc3c3ncccc3c2[nH]1 | 1 (yes)
CCCS(=O)(=O)Nc1ccc(F)c(C(=O)c2c[nH]c3ncc(-c4ccc(Cl)cc4)cc23)c1F + Cc1[nH]c2ccc(F)cc2c1-c1nc2c3cccnc3c3ncccc3c2[nH]1 | 1 (yes)
COc1cc(C2c3cc4c(cc3C(OC3OC5COC(C)OC5C(O)C3O)C3COC(=O)C23)OCO4)cc(OC)c1O (stereo unspecified) + Cc1cnc(CNC(=O)c2c(=O)c3ccc(N4CCCN(C)CC4)nc3n3c2sc2ccccc23)cn1 | 0 (no)
CC(C)(O)C1CCC(Nc2ccc3ncc(-c4cccc(C(F)(F)F)c4)n3n2)CC1 (stereo unspecified) + CN(C)c1ccc(Nc2c3ccc(NC(=O)CCN4CCCC4)cc3nc3cc(NC(=O)CCN4CCCC4)ccc23)cc1 | 0 (no)
COc1ccc([C@@H](O)c2cc(-c3ncnc4cc(N5CCOCC5)ccc34)c(F)cc2Cl)nn1 + Cc1cnc(CNC(=O)c2c(=O)c3ccc(N4CCCN(C)CC4)nc3n3c2sc2ccccc23)cn1 | 1 (yes)
CC1COCCN1c1cc(-c2ccnn2C)c2ccnc(-c3ccn[nH]3)c2n1 (stereo unspecified) + Cc1cnc(CNC(=O)c2c(=O)c3ccc(N4CCCN(C)CC4)nc3n3c2sc2ccccc23)cn1 | 1 (yes)
CC1COCCN1c1cc(C2(S(C)(=N)=O)CC2)nc(-c2ccnc3[nH]ccc23)n1 (stereo unspecified) + CN(C)c1ccc(Nc2c3ccc(NC(=O)CCN4CCCC4)cc3nc3cc(NC(=O)CCN4CCCC4)ccc23)cc1 | 0 (no)
O=C(c1cc(Cc2n[nH]c(=O)c3ccccc23)ccc1F)N1CCN(C(=O)C2CC2)CC1 + Cc1cnc(CNC(=O)c2c(=O)c3ccc(N4CCCN(C)CC4)nc3n3c2sc2ccccc23)cn1 | 0 (no)
CC(C)n1c(=O)n(C)c2cnc3cc(F)c(-c4ccc(OCCCN5CCCCC5)nc4)cc3c21 + Cc1[nH]c2ccc(F)cc2c1-c1nc2c3cccnc3c3ncccc3c2[nH]1 | 0 (no)
Cc1cccc(N(C)C(=O)C2C(O)CCN2c2nc(C)cc(C(F)(F)F)c2C#N)c1 (stereo unspecified) + Cc1cnc(CNC(=O)c2c(=O)c3ccc(N4CCCN(C)CC4)nc3n3c2sc2ccccc23)cn1 | 0 (no)
O=C(NO)c1cnc(N2CCN(S(=O)(=O)c3ccc4ccccc4c3)CC2)nc1 + Cc1[nH]c2ccc(F)cc2c1-c1nc2c3cccnc3c3ncccc3c2[nH]1 | 1 (yes)
COc1ncnc(C2CC2)c1-c1ncc2cnn(Cc3ccc(-c4nc(C(F)(F)F)cn4C(C)C)cc3)c2n1 + Cc1cnc(CNC(=O)c2c(=O)c3ccc(N4CCCN(C)CC4)nc3n3c2sc2ccccc23)cn1 | 0 (no)
C=CCn1c(=O)c2cnc(Nc3ccc(N4CCN(C)CC4)cc3)nc2n1-c1cccc(C(C)(C)O)n1 + Cc1[nH]c2ccc(F)cc2c1-c1nc2c3cccnc3c3ncccc3c2[nH]1 | 1 (yes)
O=C(NO)c1cnc(N2CCN(S(=O)(=O)c3ccc4ccccc4c3)CC2)nc1 + CN(C)c1ccc(Nc2c3ccc(NC(=O)CCN4CCCC4)cc3nc3cc(NC(=O)CCN4CCCC4)ccc23)cc1 | 1 (yes)
CCCS(=O)(=O)Nc1ccc(F)c(C(=O)c2c[nH]c3ncc(-c4ccc(Cl)cc4)cc23)c1F + CN(C)c1ccc(Nc2c3ccc(NC(=O)CCN4CCCC4)cc3nc3cc(NC(=O)CCN4CCCC4)ccc23)cc1 | 0 (no)
CC(=O)O[C@H]1C(=O)[C@@]2(C)[C@H]([C@H](OC(=O)c3ccccc3)[C@]3(O)C[C@H](OC(=O)[C@H](O)[C@@H](NC(=O)c4ccccc4)c4ccccc4)C(C)=C1C3(C)C)[C@]1(OC(C)=O)CO[C@@H]1C[C@@H]2O + Cc1cnc(CNC(=O)c2c(=O)c3ccc(N4CCCN(C)CC4)nc3n3c2sc2ccccc23)cn1 | 0 (no)
